FYI, the data here is from patent US11760775B2.

Assay: Pharmacokinetics of 4b and 6-I in mice (blood concentration-time)
Format: in vivo, C57BL/6j mice
Settings: male, C57BL/6, mouse, in vivo, ip, 1 mg/kg
Where a name gives a salt, the structure may show the parent alone.
Readout name: AUC(0-t) (ng·h/mL)
One number for each entry, in ng·h/mL.

Incoming: Reported AUC(0-t), compound CCCC1O[C@@H]2C[C@H]3[C@@H]4C[C@H](F)C5=CC(=O)C=C[C@]5(C)[C@@]4(F)[C@@H](O)C[C@]3(C)[C@]2(C(=O)CN)O1 (stereo partly shown) [Compound 4b, trifluoroacetic Acid Salt] : ____
Outgoing: 84.6

====

Assay: Solubility in water and DMSO/water
Settings: 20% DMSO in water, aqueous with cosolvent or surfactant or cyclodextrin
Readout name: solubility

Incoming: Reported solubility, compound CCC[C@@H]1O[C@@H]2C[C@H]3[C@@H]4CCC5=CC(=O)C=C[C@]5(C)[C@H]4[C@@H](O)C[C@]3(C)[C@]2(C(=O)COc2ccc(NC(=O)[C@H](C)NC(=O)[C@@H](NC(=O)CCOCCOCCOCCOCCNC(=O)CCC(=O)N3Cc4ccccc4C#Cc4ccccc43)C(C)C)cc2)O1 [LP7] : ____
Outgoing: 60 µg/mL
